Biological target: Peroxisome proliferator-activated receptor gamma (Homo sapiens, UniProt P37231)
Sequence (P37231 whole entry): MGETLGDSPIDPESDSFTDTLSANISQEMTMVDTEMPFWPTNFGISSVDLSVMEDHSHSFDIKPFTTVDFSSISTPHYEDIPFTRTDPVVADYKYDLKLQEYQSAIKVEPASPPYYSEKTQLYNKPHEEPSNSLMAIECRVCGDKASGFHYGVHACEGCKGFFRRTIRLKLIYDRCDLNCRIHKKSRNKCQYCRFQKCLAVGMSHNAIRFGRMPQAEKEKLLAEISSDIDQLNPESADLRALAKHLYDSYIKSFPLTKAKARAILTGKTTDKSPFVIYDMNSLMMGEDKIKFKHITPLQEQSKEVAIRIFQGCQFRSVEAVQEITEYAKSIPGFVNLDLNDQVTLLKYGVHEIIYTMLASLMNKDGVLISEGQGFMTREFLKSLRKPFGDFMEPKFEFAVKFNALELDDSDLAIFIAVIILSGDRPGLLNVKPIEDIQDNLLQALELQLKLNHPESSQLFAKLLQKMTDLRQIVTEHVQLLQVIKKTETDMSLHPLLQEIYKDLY
ASSAY_METRIC: EC50 (µM)
// note: answer is a bare numeric in µM

Q: // lookup EC50 for `COc1ccc(CCCC(=O)O)cc1C(=O)NCc1ccc(C(F)(F)F)cc1`
Result: 3

Provenance of the data: ChEMBL document CHEMBL1135098
